- Target: Recombinant ROCK1 (amino acids 1-477) (Homo sapiens, UniProt Q13464)
- Construct: Recombinant ROCK1 (amino acids 1-477); by word order, ROCK1 from Carna Biosciences
- Sequence (Q13464 1-477): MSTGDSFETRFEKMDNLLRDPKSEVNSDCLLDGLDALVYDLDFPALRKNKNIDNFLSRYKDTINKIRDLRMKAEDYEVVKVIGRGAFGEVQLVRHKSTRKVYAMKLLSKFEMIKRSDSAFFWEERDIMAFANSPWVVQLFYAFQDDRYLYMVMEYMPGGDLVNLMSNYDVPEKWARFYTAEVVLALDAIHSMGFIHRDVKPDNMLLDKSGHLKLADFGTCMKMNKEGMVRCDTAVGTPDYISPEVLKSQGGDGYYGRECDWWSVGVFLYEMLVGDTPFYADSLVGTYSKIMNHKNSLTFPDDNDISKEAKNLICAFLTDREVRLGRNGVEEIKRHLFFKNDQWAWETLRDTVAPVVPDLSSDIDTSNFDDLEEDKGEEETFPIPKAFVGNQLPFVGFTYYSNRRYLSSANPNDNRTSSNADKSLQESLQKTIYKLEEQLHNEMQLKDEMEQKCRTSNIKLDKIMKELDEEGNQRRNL
- Experiment: ROCK inhibition assay, LANCE Ultra TR-FRET kinase assay (ROCK1)
- Experimental Context: 1 μM ATP, 50 nM ULight-CREBtide substrate
Below, each entry is listed alongside its reported IC50.

{"Record Smiles": "CNC(=O)c1cccc(Cn2cnc3cc(-c4conc4C)ccc3c2=O)c1", "IC50": "11 to 100 nM"}
{"Record Smiles": "O=C(NCC1CCN(C2CC2)CC1)c1cc(F)cc(Cn2ccc3cc(N4CCOCC4)ccc3c2=O)c1", "IC50": "101 to 500 nM"}
{"Record Smiles": "Cn1nccc1-c1ccc2c(=O)n(Cc3cccc(C(=O)NC4CCNCC4)c3)ccc2c1", "IC50": "< 10 nM"}
{"Record Smiles": "Cc1nocc1-c1ccc2c(=O)n(Cc3cc(F)cc(C(=O)NCCN4CCOCC4)c3)ccc2c1", "IC50": "101 to 500 nM"}
{"Record Smiles": "CN1CCC(NC(=O)c2cc(F)cc(Cn3ccc4cc(-c5ccnn5C)ccc4c3=O)c2)CC1", "IC50": "11 to 100 nM"}
{"Record Smiles": "CNC(=O)c1cccc(Cn2cnc3cc(-c4cn[nH]c4C(F)F)ccc3c2=O)c1", "IC50": "11 to 100 nM"}
{"Record Smiles": "Cc1nocc1-c1ccc2c(=O)n(Cc3cccc(C(=O)NCCO)c3)ccc2c1", "IC50": "> 501 nM"}
{"Record Smiles": "Cn1nccc1-c1ccc2c(=O)n(Cc3cccc(C(=O)NC4CCN(C5COC5)CC4)c3)ccc2c1", "IC50": "101 to 500 nM"}
